Target: Aldehyde reductase AKR1A1 (Rattus norvegicus)
Test: Inhibition of Wistar rat kidney aldehyde reductase using D-glucuronate as substrate by spectrophotometry
pIC50: −log10 of the molar value.
quantity.measured: pIC50

structure: CCCNC(=O)CSc1nnc2c3cc(C)ccc3n(CC(=O)O)c2n1
pIC50: 4.71
//
structure: CC(C)(C)C(=O)c1cn(CC(=O)O)c2ccccc12
pIC50: 4.16

[A] O=C(O)Cn1ccc2ccccc21
[B] O=C(O)Cn1c2ccccc2c2nc3ccccc3nc21
When A and B are compared, which has the higher number for pIC50? // return label of chosen record
B
(B: 4.61, A: 4.10)
